TESTED_ON: Aβ42 (Homo sapiens)
Sequence (P05067 672-713): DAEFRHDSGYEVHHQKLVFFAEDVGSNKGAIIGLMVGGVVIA
TEST_NAME: Th-T (thioflavin-T) assay of Aβ42 aggregation
Format: biochemical
SETTINGS: measurement M2; source data, Ab alone and No Ab as controls
OBSERVABLE: Th-T assay plate reading, mean of three wells (Supplementary Fig. 47)
Could you keep your reply to the number by itself?

Task: Can you share its Th-T assay plate reading, mean of three wells (Supplementary Fig. 47)? I mean this compound: C=C1CCC2C(C)(CCC=C(C)C)C(=O)CCC2(C)C1Cc1c(O)c(C)c(C)oc1=O (stereo not shown)
Output: 0.2095

Task: Can you share its Th-T assay plate reading, mean of three wells (Supplementary Fig. 47)? I mean this compound: `C=C1CC[C@H]2[C@]3(C)C[C@@H](C=C(C)C)O[C@H]3CC[C@]2(C)[C@@H]1Cc1c(O)c(C)c(C)oc1=O`
Output: 0.2885

Task: Can you share its Th-T assay plate reading, mean of three wells (Supplementary Fig. 47)? I mean this compound: C=C1CCC2C(C)(CCC=C(C)C)C(O)CCC2(C)C1Cc1c(OC)oc(C)c(C)c1=O (stereo not shown) [Compound 15, viridoxin A hydrolysate]
Output: 0.2029

Task: Can you share its Th-T assay plate reading, mean of three wells (Supplementary Fig. 47)? I mean this compound: C=C1CCC2C(C)(CC(=O)C=C(C)C)C(O)CCC2(C)C1Cc1c(O)c(C)c(C)oc1=O (stereo not shown)
Output: 0.3102

Task: Can you share its Th-T assay plate reading, mean of three wells (Supplementary Fig. 47)? I mean this compound: C=C1CCC2C3(C)CC(C=C(C)C)OC3CCC2(C)C1Cc1c(OC)oc(C)c(C)c1=O (stereo not shown)
Output: 0.1872

Task: Can you share its Th-T assay plate reading, mean of three wells (Supplementary Fig. 47)? I mean this compound: C=C1CCC2C(C)(CCC=C(C)C)C(O)CCC2(C)C1Cc1c(O)c(C)c(C)oc1=O (stereo not shown) [Compound 9, higginsianin B]
Output: 0.2372

Task: Can you share its Th-T assay plate reading, mean of three wells (Supplementary Fig. 47)? I mean this compound: `C=C1CC[C@H]2[C@]3(C)C[C@@H](C=C(C)C)O[C@H]3CC[C@]2(C)[C@@H]1Cc1c(OC)oc(CO)c(C)c1=O`
Output: 0.2528
